- test method notes: Dissociation constant, pKa of the compound
- Type: physicochemical
result type: pKa

>  <smiles notation>
COC(=O)N[C@H](C(=O)N[C@@H](Cc1ccccc1)[C@@H](O)CN(Cc1ccc(-c2ccccn2)cc1)NC(=O)[C@@H](NC(=O)OC)C(C)(C)C)C(C)(C)C

>  <reported measurement>
4.7

$$$$

====

- test method notes: Half life in pH 2 30%CH3CN solution at 50 mM by RP-UPLC analysis
- Type: physicochemical

>  <smiles notation>
COC(=O)N[C@H](C(=O)N[C@@H](Cc1ccccc1)[C@H](CN(Cc1ccc(-c2ccccn2)cc1)NC(=O)[C@@H](NC(=O)OC)C(C)(C)C)OCOP(=O)([O-])[O-])C(C)(C)C.[Na+].[Na+]

>  <half-life at 50000 µM / h>
1.95

$$$$

====

- system name: UGT1A1 (Rattus norvegicus)
- Sequence (Q64550 whole entry): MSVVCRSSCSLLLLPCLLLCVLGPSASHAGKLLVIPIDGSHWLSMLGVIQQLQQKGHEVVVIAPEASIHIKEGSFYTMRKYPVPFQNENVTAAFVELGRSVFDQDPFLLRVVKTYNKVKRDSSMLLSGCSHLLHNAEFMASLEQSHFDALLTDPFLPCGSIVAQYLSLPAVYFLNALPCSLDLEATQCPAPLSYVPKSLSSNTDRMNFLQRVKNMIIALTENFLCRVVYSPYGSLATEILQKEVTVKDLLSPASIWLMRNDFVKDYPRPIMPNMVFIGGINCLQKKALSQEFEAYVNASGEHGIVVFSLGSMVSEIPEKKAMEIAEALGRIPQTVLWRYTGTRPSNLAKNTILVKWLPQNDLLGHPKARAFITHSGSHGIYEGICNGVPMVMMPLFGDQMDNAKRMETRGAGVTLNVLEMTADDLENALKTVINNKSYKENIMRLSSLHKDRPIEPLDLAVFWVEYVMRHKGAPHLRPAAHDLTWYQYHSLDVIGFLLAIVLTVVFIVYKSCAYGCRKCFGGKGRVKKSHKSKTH
- test method notes: Ratio of test compound IC50 to atazanavir IC50 for UGT1A1 in rat liver microsomes
- Assay type: ADME
- condition notes: read-out: Ratio IC50

>  <smiles notation>
COC(=O)N[C@H](C(=O)N[C@@H](Cc1ccccc1)[C@H](CN(Cc1ccc(-c2ccccn2)cc1)NC(=O)[C@@H](NC(=O)OC)C(C)(C)C)OC(=O)[C@@H](N)Cc1ccccc1)C(C)(C)C

>  <selectivity ratio>
5.7

$$$$

====

- test method notes: physchem
- condition notes: phosphate buffer, pH 6.5
- Description: Aqueous solubility of the compound in pH 6.5 phosphate buffer by RP-UPLC analysis
# solubility listing for each entry below
result type: solubility (mg/mL)

>  <smiles notation>
COC(=O)N[C@H](C(=O)N[C@@H](Cc1ccccc1)[C@H](CN(Cc1ccc(-c2ccccn2)cc1)NC(=O)[C@@H](NC(=O)OC)C(C)(C)C)OC(=O)[C@@H](NC(=O)[C@H](N)C(C)C)C(C)C)C(C)(C)C

>  <censor symbol>
=

>  <reported measurement>
0.62

$$$$
>  <smiles notation>
CNCC(=O)O[C@@H](CN(Cc1ccc(-c2ccccn2)cc1)NC(=O)[C@@H](NC(=O)OC)C(C)(C)C)[C@H](Cc1ccccc1)NC(=O)[C@@H](NC(=O)OC)C(C)(C)C

>  <censor symbol>
=

>  <reported measurement>
0.93

$$$$
>  <smiles notation>
COC(=O)N[C@H](C(=O)N[C@@H](Cc1ccccc1)[C@H](CN(Cc1ccc(-c2ccccn2)cc1)NC(=O)[C@@H](NC(=O)OC)C(C)(C)C)OC(=O)CNC(=O)[C@H](N)Cc1ccccc1)C(C)(C)C

>  <censor symbol>
=

>  <reported measurement>
0.23

$$$$
>  <smiles notation>
COC(=O)N[C@H](C(=O)N[C@@H](Cc1ccccc1)[C@H](CN(Cc1ccc(-c2ccccn2)cc1)NC(=O)[C@@H](NC(=O)OC)C(C)(C)C)OC(=O)CNCc1ccccc1)C(C)(C)C

>  <censor symbol>
<

>  <reported measurement>
0.001

$$$$
>  <smiles notation>
COC(=O)N[C@H](C(=O)N[C@@H](Cc1ccccc1)[C@H](CN(Cc1ccc(-c2ccccn2)cc1)NC(=O)[C@@H](NC(=O)OC)C(C)(C)C)OC(=O)[C@H](NC(=O)[C@H](N)C(C)C)C(C)C)C(C)(C)C

>  <censor symbol>
=

>  <reported measurement>
0.82

$$$$
>  <smiles notation>
COC(=O)N[C@H](C(=O)N[C@@H](Cc1ccccc1)[C@H](CN(Cc1ccc(-c2ccccn2)cc1)NC(=O)[C@@H](NC(=O)OC)C(C)(C)C)OC(=O)CN(C)C(=O)[C@H](Cc1ccccc1)N(C)C)C(C)(C)C

>  <censor symbol>
=

>  <reported measurement>
0.02

$$$$
>  <smiles notation>
COC(=O)N[C@H](C(=O)N[C@@H](Cc1ccccc1)[C@H](CN(Cc1ccc(-c2ccccn2)cc1)NC(=O)[C@@H](NC(=O)OC)C(C)(C)C)OC(=O)[C@@H](C)N)C(C)(C)C

>  <censor symbol>
=

>  <reported measurement>
0.52

$$$$
>  <smiles notation>
COC(=O)N[C@H](C(=O)N[C@@H](Cc1ccccc1)[C@H](CN(Cc1ccc(-c2ccccn2)cc1)NC(=O)[C@@H](NC(=O)OC)C(C)(C)C)OC(=O)CNC(=O)[C@@H](N)Cc1ccccc1)C(C)(C)C

>  <censor symbol>
>

>  <reported measurement>
0.64

$$$$
>  <smiles notation>
COC(=O)N[C@H](C(=O)N[C@@H](Cc1ccccc1)[C@H](CN(Cc1ccc(-c2ccccn2)cc1)NC(=O)[C@@H](NC(=O)OC)C(C)(C)C)OC(=O)[C@H](NC(=O)[C@@H](N)C(C)C)C(C)C)C(C)(C)C

>  <censor symbol>
=

>  <reported measurement>
0.93

$$$$
>  <smiles notation>
COC(=O)N[C@H](C(=O)N[C@@H](Cc1ccccc1)[C@H](CN(Cc1ccc(-c2ccccn2)cc1)NC(=O)[C@@H](NC(=O)OC)C(C)(C)C)OC(=O)[C@H](N)Cc1ccccc1)C(C)(C)C

>  <censor symbol>
<

>  <reported measurement>
0.001

$$$$
>  <smiles notation>
COC(=O)N[C@H](C(=O)N[C@@H](Cc1ccccc1)[C@H](CN(Cc1ccc(-c2ccccn2)cc1)NC(=O)[C@@H](NC(=O)OC)C(C)(C)C)OC(=O)[C@@H](NC(=O)[C@@H](N)C(C)C)C(C)C)C(C)(C)C

>  <censor symbol>
=

>  <reported measurement>
0.78

$$$$
>  <smiles notation>
COC(=O)N[C@H](C(=O)N[C@@H](Cc1ccccc1)[C@H](CN(Cc1ccc(-c2ccccn2)cc1)NC(=O)[C@@H](NC(=O)OC)C(C)(C)C)OCOP(=O)([O-])[O-])C(C)(C)C.[Na+].[Na+]

>  <censor symbol>
>

>  <reported measurement>
1.06

$$$$
>  <smiles notation>
COC(=O)N[C@H](C(=O)N[C@@H](Cc1ccccc1)[C@H](CN(Cc1ccc(-c2ccccn2)cc1)NC(=O)[C@@H](NC(=O)OC)C(C)(C)C)OC(=O)[C@H](C)N)C(C)(C)C

>  <censor symbol>
=

>  <reported measurement>
0.75

$$$$
>  <smiles notation>
COC(=O)N[C@H](C(=O)N[C@@H](Cc1ccccc1)[C@H](CN(Cc1ccc(-c2ccccn2)cc1)NC(=O)[C@@H](NC(=O)OC)C(C)(C)C)OP(=O)(O)O)C(C)(C)C

>  <censor symbol>
>

>  <reported measurement>
2.87

$$$$
>  <smiles notation>
COC(=O)N[C@H](C(=O)N[C@@H](Cc1ccccc1)[C@H](CN(Cc1ccc(-c2ccccn2)cc1)NC(=O)[C@@H](NC(=O)OC)C(C)(C)C)OC(=O)[C@@H](N)Cc1ccccc1)C(C)(C)C

>  <censor symbol>
=

>  <reported measurement>
0.027

$$$$

====

- condition notes: rat, in vivo, po, 3 mg/kg
- Description: AUClast in cannulated Sprague-Dawley rat assessed as atazanavir level at 3 mg/kg equiv of atazanavir administered orally by UPLC/MS/MS analysis
Could you please mark true for values of AUClast below 200 nM·h and false for values at or above it?

>  <smiles notation>
COC(=O)N[C@H](C(=O)N[C@@H](Cc1ccccc1)[C@H](CN(Cc1ccc(-c2ccccn2)cc1)NC(=O)[C@@H](NC(=O)OC)C(C)(C)C)OC(=O)[C@H](N)Cc1ccccc1)C(C)(C)C

>  <group label>
true

$$$$
>  <smiles notation>
COC(=O)N[C@H](C(=O)N[C@@H](Cc1ccccc1)[C@H](CN(Cc1ccc(-c2ccccn2)cc1)NC(=O)[C@@H](NC(=O)OC)C(C)(C)C)OC(=O)[C@H](NC(=O)[C@H](N)C(C)C)C(C)C)C(C)(C)C

>  <group label>
true

$$$$
>  <smiles notation>
COC(=O)N[C@H](C(=O)N[C@@H](Cc1ccccc1)[C@H](CN(Cc1ccc(-c2ccccn2)cc1)NC(=O)[C@@H](NC(=O)OC)C(C)(C)C)OC(=O)CNC(=O)[C@@H](N)Cc1ccccc1)C(C)(C)C

>  <group label>
true

$$$$
>  <smiles notation>
COC(=O)N[C@H](C(=O)N[C@@H](Cc1ccccc1)[C@H](CN(Cc1ccc(-c2ccccn2)cc1)NC(=O)[C@@H](NC(=O)OC)C(C)(C)C)OC(=O)[C@@H](N)Cc1ccc(F)cc1)C(C)(C)C

>  <group label>
false

$$$$
>  <smiles notation>
COC(=O)N[C@H](C(=O)N[C@@H](Cc1ccccc1)[C@H](CN(Cc1ccc(-c2ccccn2)cc1)NC(=O)[C@@H](NC(=O)OC)C(C)(C)C)OC(=O)[C@H](C)N)C(C)(C)C

>  <group label>
true

$$$$
>  <smiles notation>
COC(=O)N[C@H](C(=O)N[C@@H](Cc1ccccc1)[C@H](CN(Cc1ccc(-c2ccccn2)cc1)NC(=O)[C@@H](NC(=O)OC)C(C)(C)C)OC(=O)CN(C)C(=O)[C@@H](N)Cc1ccccc1)C(C)(C)C.Cl.Cl

>  <group label>
false

$$$$
>  <smiles notation>
COC(=O)N[C@H](C(=O)N[C@@H](Cc1ccccc1)[C@H](CN(Cc1ccc(-c2ccccn2)cc1)NC(=O)[C@@H](NC(=O)OC)C(C)(C)C)OC(=O)CN(C)C(=O)[C@H](Cc1ccccc1)N(C)C)C(C)(C)C

>  <group label>
false

$$$$
